Values compiled from ChEMBL document CHEMBL1795275.

Species: Rattus norvegicus
Assay: Positive allosteric modulation of AMPA receptor in rat hippocampal slices assessed as increase of fEPSP-induced current amplitude at 10 uM
Type: tissue-based
Conditions: Hippocampus
Assay Metric: Activity (%)

Here are 5 compounds together with their reported answers.
N#CCCN1COc2cc3c(cc2C1=O)OC1CCCN1C3=O (stereo unspecified): 19
CN(CCN1COc2cc3c(cc2C1=O)OC1CCCN1C3=O)S(C)(=O)=O (stereo unspecified): 8
CCN1COc2cc3c(cc2C1=O)OC1CCCN1C3=O (stereo unspecified): 17
O=C1c2cc3c(cc2OCN1CCc1ccncc1)C(=O)N1CCCC1O3 (stereo unspecified): 15
N#CCN1COc2cc3c(cc2C1=O)OC1CCCN1C3=O (stereo unspecified): 10

A. N#CCCCCN1COc2cc3c(cc2C1=O)OC1CCCN1C3=O (stereo unspecified)
B. N#CNCCN1COc2cc3c(cc2C1=O)OC1CCCN1C3=O (stereo unspecified)
C. COCCN1COc2cc3c(cc2C1=O)OC1CCCN1C3=O (stereo unspecified)
D. O=C1c2cc3c(cc2OCN1CCn1ccnc1)C(=O)N1CCCC1O3 (stereo unspecified)
E. CN(CCCN1COc2cc3c(cc2C1=O)OC1CCCN1C3=O)S(C)(=O)=O (stereo unspecified)
Q: In this exercise, place the 5 compounds in ascending sequence of their recorded Activity. Arrange the labels as the request states and list them.
A: B, E, C, A, D

----------
Species on record: Rattus norvegicus
Test: Positive allosteric modulation of AMPA receptor in rat hippocampal slices assessed as increase of fEPSP-induced current amplitude at 3 uM
Type: tissue-based
Conditions: Hippocampus
Assay Metric: Activity (%)

N#Cc1cnn(CCN2COc3cc4c(cc3C2=O)OC2CCCN2C4=O)c1 (centres undefined): 29
O=C1c2cc3c(cc2OCN1CCc1ccccc1)C(=O)N1CCCC1O3 (centres undefined): 3
[N-]=[N+]=NCCN1COc2cc3c(cc2C1=O)OC1CCCN1C3=O (centres undefined): 16
C[S+]([O-])CCN1COc2cc3c(cc2C1=O)OC1CCCN1C3=O (centres undefined): 14
O=C1c2cc3c(cc2OCN1CCn1nccn1)C(=O)N1CCCC1O3 (centres undefined): 7
CSCCN1COc2cc3c(cc2C1=O)OC1CCCN1C3=O (centres undefined): 12
N#CSCCN1COc2cc3c(cc2C1=O)OC1CCCN1C3=O (centres undefined): 7
O=C1c2cc3c(cc2OCN1CCc1ccsc1)C(=O)N1CCCC1O3 (centres undefined): 15

a. N#Cc1cccc(CCN2COc3cc4c(cc3C2=O)OC2CCCN2C4=O)c1 (centres undefined)
b. O=C1c2cc3c(cc2OCN1CCc1cccc([N+](=O)[O-])c1)C(=O)N1CCCC1O3 (centres undefined)
c. O=C1c2cc3c(cc2OCN1CCc1ccon1)C(=O)N1CCCC1O3 (centres undefined)
d. O=C1c2cc3c(cc2OCN1CCn1cc(Br)cn1)C(=O)N1CCCC1O3 (centres undefined)
Q: Order the 4 molecules from highest to lowest Activity. Arrange the labels as the request states and list them.
A: d, a, b, c
(d: 32%, a: 16%, b: 8%, c: 4%)

a. N#Cc1ccnn1CCN1COc2cc3c(cc2C1=O)OC1CCCN1C3=O (centres undefined)
b. CS(=O)(=O)NCCN1COc2cc3c(cc2C1=O)OC1CCCN1C3=O (centres undefined)
Q: When their Activity values are compared, which is larger, a or b ? To answer, give the label that identifies your chosen option.
A: a
(a: 16%, b: 10%)

I. O=C1c2cc3c(cc2OCN1CCc1cc(F)cc(F)c1)C(=O)N1CCCC1O3 (centres undefined)
II. O=C1c2cc3c(cc2OCN1CCn1cncn1)C(=O)N1CCCC1O3 (centres undefined)
Q: When their Activity values are compared, which is larger, I or II ? To answer, give the label that identifies your chosen option.
A: II

----------
Species on record: Rattus norvegicus
Assay: Positive allosteric modulation of AMPA receptor in rat embryonic hippocampal neurons assessed as concentration required to double glutamate-induced steady-state current by patch clamp electrophysiology assay
Settings: Hippocampus
Assay Metric: CD (µM)

Here are 2 compounds together with their reported answers.
O=C1c2cc3c(cc2OCN1CCc1cccs1)C(=O)N1CCCC1O3 (stereo not given): 0.032
N#CCCCN1COc2cc3c(cc2C1=O)OC1CCCN1C3=O (stereo not given): 0.05

P. O=C1c2cc3c(cc2OCN1CCn1cnc([N+](=O)[O-])c1)C(=O)N1CCCC1O3 (stereo not given)
Q. NC(=O)c1cccc(CCN2COc3cc4c(cc3C2=O)OC2CCCN2C4=O)c1 (stereo not given)
R. O=C1c2cc3c(cc2OCN1CCc1cccnc1)C(=O)N1CCCC1O3 (stereo not given)
S. O=C1c2cc3c(cc2OCN1CCc1ccccn1)C(=O)N1CCCC1O3 (stereo not given)
Q: In this exercise, place the 4 compounds in ascending sequence of their recorded CD. Arrange the labels as the request states and list them.
A: P, R, S, Q

----------
Species: Rattus norvegicus
Test: Positive allosteric modulation of AMPA receptor in rat embryonic hippocampal neurons assessed as concentration required to double glutamate-induced steady-state current by patch clamp electrophysiology assay
Conditions: Hippocampus
Listed here are compounds together with their documented CD.

CSCCN1COc2cc3c(cc2C1=O)OC1CCCN1C3=O (stereo not drawn): 0.29 µM

Q: Return CD (reported value) for this compound: N#Cc1cnn(CCN2COc3cc4c(cc3C2=O)OC2CCCN2C4=O)c1 (stereo not drawn)
A: 0.04 µM

Q: Return CD (reported value) for this compound: O=C1c2cc3c(cc2OCN1CCn1cccn1)C(=O)N1CCCC1O3 (stereo not drawn)
A: 0.064 µM

Q: Return CD (reported value) for this compound: O=C1c2cc3c(cc2OCN1CCn1cnc([N+](=O)[O-])n1)C(=O)N1CCCC1O3 (stereo not drawn)
A: 0.01 µM

Q: Return CD (reported value) for this compound: O=C1c2cc3c(cc2OCN1CCn1ccnn1)C(=O)N1CCCC1O3 (stereo not drawn)
A: 0.16 µM

Q: Return CD (reported value) for this compound: O=C1c2cc3c(cc2OCN1CCc1cccc([N+](=O)[O-])c1)C(=O)N1CCCC1O3 (stereo not drawn)
A: 0.015 µM

Q: Return CD (reported value) for this compound: N#CSCCN1COc2cc3c(cc2C1=O)OC1CCCN1C3=O (stereo not drawn)
A: 0.06 µM

----------
Species on record: Rattus norvegicus
Experiment: Positive allosteric modulation of AMPA receptor in rat hippocampal slices assessed as increase of fEPSP-induced current amplitude at 3 uM
Type: tissue-based
Conditions: Hippocampus
Assay Metric: Activity (%)

Here are 5 molecules together with their reported answers.
CS(=O)(=O)CCN1COc2cc3c(cc2C1=O)OC1CCCN1C3=O (stereo not drawn): 6
N#Cc1ccn(CCN2COc3cc4c(cc3C2=O)OC2CCCN2C4=O)n1 (stereo not drawn): 10
O=C1c2cc3c(cc2OCN1CCn1cnc([N+](=O)[O-])n1)C(=O)N1CCCC1O3 (stereo not drawn): 14
N#CCCCN1COc2cc3c(cc2C1=O)OC1CCCN1C3=O (stereo not drawn): 11
O=C1c2cc3c(cc2OCN1CCn1cccn1)C(=O)N1CCCC1O3 (stereo not drawn): 15

a. O=C1c2cc3c(cc2OCN1CCc1cccc(F)c1)C(=O)N1CCCC1O3 (stereo not drawn)
b. O=C1c2cc3c(cc2OCN1CCc1ccncc1)C(=O)N1CCCC1O3 (stereo not drawn)
Q: Lower Activity: a or b ? To answer, give the label that identifies your chosen option.
A: b
(b: 3%, a: 16%)

----------
Organism: Rattus norvegicus
Test: Positive allosteric modulation of AMPA receptor in rat embryonic hippocampal neurons assessed as concentration required to double glutamate-induced steady-state current by patch clamp electrophysiology assay
Details: Hippocampus
Assay Metric: CD (µM)

Here are 7 compounds together with their reported answers.
CN(CCCN1COc2cc3c(cc2C1=O)OC1CCCN1C3=O)S(C)(=O)=O (centres undefined): 0.33
O=C1c2cc3c(cc2OCN1CCO)C(=O)N1CCCC1O3 (centres undefined): 1.3
C[C@H]1CN2C(=O)c3cc4c(cc3O[C@@H]2O1)OCO4: 2
O=C1c2cc3c(cc2OCN1CCn1cc(Cl)cn1)C(=O)N1CCCC1O3 (centres undefined): 0.0037
O=C1c2cc3c(cc2OCN1CCc1cccc(C(F)(F)F)c1)C(=O)N1CCCC1O3 (centres undefined): 0.2
O=C1c2cc3c(cc2OCN1CCCc1ccccc1)C(=O)N1CCCC1O3 (centres undefined): 3.6
O=C1c2cc3c(cc2OCN1CCn1cc([N+](=O)[O-])cn1)C(=O)N1CCCC1O3 (centres undefined): 0.0065

A. O=C1c2cc3c(cc2OCN1CCc1ccsc1)C(=O)N1CCCC1O3 (centres undefined)
B. CS(=O)(=O)NCCN1COc2cc3c(cc2C1=O)OC1CCCN1C3=O (centres undefined)
Q: When their CD values are compared, which is larger, A or B ? To answer, give the label that identifies your chosen option.
A: B
(B: 0.33 µM, A: 0.02 µM)
